# ASSAY_DETAILS: Compound was evaluated for oral bioavailability in dogs; 37-38 %
# Format: ADME, organism-based, Canis lupus familiaris
# COND: dog, in vivo
MEASURED_METRIC: bioavailability (%)
The reply should be a number in %, with the unit left off.

Give a short answer stating reported bioavailability for O=C1N(Cc2ccc(CO)cc2)[C@H](Cc2ccccc2)[C@H](O)[C@@H](O)[C@@H](Cc2ccccc2)N1Cc1ccc(CO)cc1 .
38
